B1: HESX1 (parent)
chain: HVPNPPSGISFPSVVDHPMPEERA

- Variants of: B1
- assay: protein stability index of a GFP-peptide fusion (GPS, HEK-293T) (PSI 1-6); higher = more stable;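 also: lentivirally expressed fusions sorted by FACS into six bins by GFP to DsRed ratio, PSI derived from sequencing read proportions per bin multiplied by bin number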
- particulars: c terminus: a fixed tail appended
value.type: protein stability index
// keep it numeric: no unit symbol after the value

query: Which protein stability index value belongs to F11E ?
result: 5.4

query: Thanks! And P18W ?
result: 2.28

query: Thanks! And R23Q ?
result: 2.21

query: Thanks! And H17I ?
result: 2.66

query: Thanks! And E22M ?
result: 2.15

query: Thanks! And D16E ?
result: 2.73

query: Thanks! And V2Q ?
result: 5.26

query: Thanks! And S7L ?
result: 3.61
